All values here come from ChEMBL document CHEMBL4257548.

# Test system: GM15850
# assay: Effect on frataxin expression in human GM15850 cells at 50 nM after 24 hrs by ELISA relative to control
# Assay type: functional
Attribute: Activity
quantity_measured: Activity (%)

1. CCCCCCCCCCCCCCCN(C)c1ccc2nc3ccc(=O)cc-3sc2c1 114
2. CCCCCCCCCCCCCCCCc1cc2nc3ccc(N(C)C)cc3sc-2cc1=O 120
3. CCCCCCCCCCCCCCCN(CCCC)c1ccc2nc3ccc(=O)cc-3sc2c1 116
4. CN(C)c1ccc2nc3ccc(=O)cc-3sc2c1 111

###

Listing of entries alongside the reported Activity.
# System: GM15850
# assay: Effect on frataxin expression in human GM15850 cells at 50 nM after 48 hrs by ELISA relative to control
# Type: functional
quantity_measured: Activity

1) CCCCCCCCCCCCCCCCc1cc2nc3ccc(N(C)C)cc3sc-2cc1=O 124%
2) CN(C)c1ccc2nc3ccc(=O)cc-3sc2c1 113%
3) CCCCCCCCCCCCCCCN(C)c1ccc2nc3ccc(=O)cc-3sc2c1 120%
4) CCCCCCCCCCCCCCCN(CCCC)c1ccc2nc3ccc(=O)cc-3sc2c1 121%

###

Listed next: entries and their corresponding Activity.
# Test system: GM16216
# assay: Effect on mitochondrial membrane potential in human GM16216 cells assessed as loss of mitochondrial membrane potential at 0.25 uM after 16 hrs by JC1 staining based flow cytometry (reference value: 13%)
# Format: functional
quantity_measured: Activity (%)

1. CCCCCc1cc2nc3ccc(N(C)C)cc3sc-2cc1=[N+](C)C.[I-] 19
2. CN(C)c1ccc2nc3ccc(=O)cc-3sc2c1 15
3. CCCCCCCCCCCCCc1cc2nc3ccc(N(C)C)cc3sc-2cc1=[N+](C)C.[I-] 18
4. CCCCCc1cc2nc3ccc(N(C)C)cc3sc-2cc1=O 16
5. CCCCCCCCCCCCCc1cc2nc3ccc(N(C)C)cc3sc-2cc1=O 13
6. CCCCCCCCCCCCCCCCc1cc2nc3ccc(N(C)C)cc3sc-2cc1=O 12
